// provenance: PubChem BioAssay (NCI)

Tested on: SK-MEL-5 melanoma
protocol summary: NCI-60 one-dose screen, 48 h
measurement parameters: 10 µM
This is part of a sample that, as a whole, favours compounds with a hit. Of some 83,000 tested, about 20% had one in any assay. Calls of active or inactive are those of the source. How the source made its calls: active means growth percent below 10; inactive means the rest.
Possible outcomes: true for active, false for inactive

COc1ccc2[nH]c(=O)c(CSc3ccc(Nc4nccc(-c5ccc(Cl)cc5)n4)cc3)cc2c1 = false
O=c1[nH]c2ccccc2cc1CSc1ccc(Nc2nccc(-c3ccc4ccccc4c3)n2)cc1 = false
COc1ccc2[nH]cc(/C=N/Nc3cccc(Cl)n3)c2c1 = false
COc1ccc(CCN2C(=O)/C(=C/c3csc(C#N)n3)SC2=S)cc1OC = false
OCCCNc1oc(-c2ccccc2)nc1[P+](c1ccccc1)(c1ccccc1)c1ccccc1 = true
CCCCOc1ccc(Nc2nc3ccccc3nc2Nc2ccc(OCCCC)cc2)cc1 = false
O=C(Nc1ccccc1)Nc1nc2ccccc2s1 = false
N[C@@H](CSSC[C@H](N)C(=O)Nc1ccc(OCC2CCCC2)cc1)C(=O)Nc1ccc(OCC2CCCC2)cc1 = true
